Assignment: determine reported Percent Effect for the given compounds.
System: Wolbachia pipientis
assay-text: Anti-Wolbachia Cell-Based Screen
Format: functional
Parameters: scale not given: in the data most compounds retested in dose-response had high values
condition-description: 5 µM
The campaign covered roughly 48,000 compounds. About 13,000 (27%) showed an effect of 50% or more. The list shows a part of the results.
One number for each entry, in %.

Some entries whose results are on file:
O=C(CNC(=O)c1ccccc1Cl)Nc1nccs1	1.164
CO[C@H]1[C@@H]2CC[C@H]1CN(c1nc(C)nc3ccsc13)C2	116.9
Cc1cnc(CN2CCCCC2c2nc(-c3ccccc3)no2)cn1 (configuration not stated)	19.76
CN(C)CCN1CC2(CCCN(c3ccc(Cl)cn3)C2)CCC1=O (configuration not stated)	-8.264
CO[C@H]1[C@@H]2CC[C@H]1CN(c1nc(C)nc3sccc13)C2	2.93
NC(=O)C1CCN(C(=O)c2ccn(-c3ccc(F)cc3)n2)C1 (configuration not stated)	-7.383
Cc1cc(C(=O)NCc2ccc(N3CCCC(C(N)=O)C3)cc2)[nH]n1 (configuration not stated)	-1.321
CC(C)n1nc(Cn2cccn2)c2c1CN(CC1CCOC1)C2.O=C(O)C(F)(F)F (configuration not stated)	-1.747
Fc1ccc(-c2cc(NCCC3CCOC3)n3nccc3n2)cc1 (configuration not stated)	40.16
O=C(N[C@@H]1CCNC[C@H]1O)c1ccccc1OC(F)(F)C(F)F	-13.38

For each of the items listed, what is its Percent Effect?
1. CC(CCN1CCOCC1)NC(=O)c1cccc(C(F)(F)F)c1F (configuration not stated)
2. CN(Cc1cccnc1)C[C@H]1CC[C@@H](Cc2ccc3c(cnn3C)c2)O1

Reply:
[-6.149, -1.235]

For each of the items listed, what is its Percent Effect?
1. COc1ccc(SC(C)C(=O)N2CCC(C(N)=O)CC2)cc1 (configuration not stated)
2. CN1CCN(CC2CC2)C(=O)c2cnc(N3CCCC3)nc21
3. CCCc1cc(C(=O)N2Cc3cnc(C(C)(C)C)nc3C2)ccn1
4. CC(C(=O)N1CCC(Nc2cccnn2)CC1)n1ccnc1 (configuration not stated)
5. Cc1cc(CN2CCN(C(c3ccccc3)c3ccccc3)CC2)no1

Reply:
-1.042
-1.77
-16.23
3.754
-4.667
